# test_protocol: Pharmacokinetics and metabolism after iv and po administration
# Type: in vivo
# test_settings: male, C57/BL6, mouse, plasma, po, 50 mg/kg, 1 h after po 50 mg/kg artemisone 7; read-out: Mean po circulating concentration
quantity_measured: concentration at 1 h

# compound, obs_value
measured = [
    ("C[C@H]1[C@H](N2CCS(=O)(=O)CC2)O[C@@H]2O[C@@]3(C)CC[C@H]4[C@H](C)CC[C@@H]1[C@@]24OO3 [Artemisone 7, Artemisone]", "357 nM"),
]

###

# test_protocol: Pharmacokinetics and metabolism after iv and po administration
# Format: in vivo
# test_settings: male, C57/BL6, mouse, plasma, po, 50 mg/kg, 0.08 h after po 50 mg/kg artemisone 7; read-out: Mean po circulating concentration

# molecule, concentration at 0.08 h / nM
data = [
    ("C[C@H]1[C@H](N2CCS(=O)(=O)CC2)O[C@@H]2O[C@@]3(C)CC[C@H]4[C@H](C)CC[C@@H]1[C@@]24OO3 [Artemisone 7, Artemisone]", 1630),
]
